# Test system: platelets (platelet-rich plasma), agglutination induced by collagen
# Assay: Inhibition of platelet agglutination induced by collagen (rat PRP, aggligometer)
# Format: cell-based
# Measurement conditions: 37° C., collagen 0.14 mg/ml, from inhibition ratio for maximum thrombotic agglutination
pIC50: −log10 of the molar value.
Quantity kind: pIC50

Compound	Quantity kind	Assay result
CCCCCC=CC(=O)NCCSSCCNC(=O)C=CCCCCC [Compound 4, [SCH2 CH2 NH--COCH=CH(CH2)4 CH3]2]	pIC50	3.54
CCC=CC(=O)NCCSSCCNC(=O)C=CCC [Compound 1, [SCH2 CH2 NH--COCH=CHCH2 CH3]2]	pIC50	4.82
CCCC=CC(=O)NCCSSCCNC(=O)C=CCCC [Compound 2, [SCH2 CH2 NH--COCH=CH(CH2)2 CH3]2]	pIC50	5.40
CCCCC=CC(=O)NCCSSCCNC(=O)C=CCCCC [Compound 3, [SCH2 CH2 NH--COCH=CH(CH2)3 CH3]2]	pIC50	4.59

src = patent US4916130A
